- experimental_system: Cytochrome P450 2C9 (Homo sapiens)
- Sequence (P11712 whole entry): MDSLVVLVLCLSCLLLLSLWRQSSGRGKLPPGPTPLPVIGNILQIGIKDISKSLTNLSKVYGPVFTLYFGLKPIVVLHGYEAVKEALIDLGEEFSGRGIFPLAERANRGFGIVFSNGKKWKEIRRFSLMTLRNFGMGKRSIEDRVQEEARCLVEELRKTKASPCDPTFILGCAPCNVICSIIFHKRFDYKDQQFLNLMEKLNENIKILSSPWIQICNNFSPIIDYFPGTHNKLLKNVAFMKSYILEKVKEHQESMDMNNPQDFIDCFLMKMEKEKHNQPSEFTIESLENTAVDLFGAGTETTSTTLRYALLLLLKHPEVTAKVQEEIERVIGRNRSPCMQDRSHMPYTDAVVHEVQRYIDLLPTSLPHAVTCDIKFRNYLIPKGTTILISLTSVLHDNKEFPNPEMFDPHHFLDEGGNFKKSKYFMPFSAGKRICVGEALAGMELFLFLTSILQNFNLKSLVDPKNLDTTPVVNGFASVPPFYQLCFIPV
recorded_metric: pIC50
Value format note: pIC50 is -log10 of concentration (mol/L); just state the number.

Find the measured pIC50: item `O=C(c1nccs1)N1CC[C@@H](Nc2nccc(-n3cc(C4CC4)nc3-c3cccc(Cl)c3)n2)C1` , target or system Cytochrome P450 2C9 (Homo sapiens).
5.55

----------
- System: Plasmodium falciparum
- test_protocol: Inhibition of Plasmodium falciparum PKG using FAM-labeled PKAtide or IP3R-derived peptide as a substrate at 1 uM preincubated for 15 mins followed by substrate addition and incubated for 60 mins by IMAP assay relative to control
- condition_context: time 75.0 min
recorded_metric: inhibition (%)
Number only, in %; omit the unit.

[[record]]
compound = "Cc1cn(-c2ccnc(NCC3CCCN3C(=O)c3nccs3)n2)c(-c2ccccc2)n1 (configuration not stated)"
endpoint_result = 3

[[record]]
compound = "Cc1cn(-c2ccnc(N[C@@H]3CCN(C(=O)c4nccs4)C3)n2)c(-c2ccccc2Cl)n1"
endpoint_result = 47

[[record]]
compound = "Cc1cn(-c2ccnc(NC3CCCN(C(=O)c4nccs4)C3)n2)c(-c2ccccc2)n1 (configuration not stated)"
endpoint_result = 4


Find the measured inhibition: item Cc1cn(-c2ccnc(NCC3CCN3C(=O)c3nccs3)n2)c(-c2ccccc2)n1 (configuration not stated) , target or system Plasmodium falciparum.
2
